testMethodNotes: qHTS of pediatric cancer cell lines to identify multiple opportunities for drug repurposing: Primary screen for NB1643 cells (AID 1347099); note: nearly all actives have a fitted effect of over 50% in size
studyConditions: NB1643 neuroblastoma viability, CellTiter-Glo luminescence, 48 h; series mostly up to 46 µM
Records with an inconclusive call do not appear. Active and inactive are the calls of the source. Calls come from the whole dose curve; as a rule, active = well fitted cell-killing curve with a large enough effect; inconclusive = small, poorly fitted or top-dose-only effect; inactive = no such curve, though single readings can be large or run the other way.
Labels: active, inactive

molecule: O=C(NCC1CCOCC1)c1cnc(Nc2ccc(Cl)cc2Cl)nc1C(F)(F)F
label: active

molecule: CCN1CCN(C(=O)Cc2ccc(Nc3ncc(F)c(Nc4ccc(C(=O)Nc5ccccc5Cl)cc4)n3)cc2)CC1
label: active

molecule: CCC(=O)OC1CCC2C3CCC4=CC(=O)CC[C@@]4(C)C3CC[C@]12C (stereo not given in full)
label: inactive

molecule: COc1cccc2c1[C@]13CCN(CC4CC4)[C@H](C2)[C@]1(OC)CCC(=O)C3
label: inactive

molecule: COC(C)(C)CCCC(C)C/C=C/C(C)=C/C(=O)OC(C)C (stereo not given)
label: inactive

----------
testMethodNotes: qHTS Screen of the MIPE 4.0 Collection Against Ewings Sarcoma (TC32) (AID 1259256); note: nearly all actives have a fitted effect of over 45% in size
studyConditions: TC32 Ewing sarcoma viability, CellTiter-Glo, 48 h; series mostly up to 45.8 µM
Results filed as inconclusive are left out. Activity calls are given as the source filed them. Calls follow the shape of the dose curve; as a rule, active = well fitted inhibition curve with a large enough effect; inconclusive = small, poorly fitted or top-dose-only effect; inactive = no such curve, though single readings can be large or run the other way.
Outcomes: True (active), False (inactive)

compound: NC1=NC(=O)N2CC12 (stereo not drawn)
label: False

compound: Cc1c(C(=O)Nc2cccc(C(F)(F)F)c2)cc(-c2ccccc2)n1CCCN1CCOCC1
label: True

compound: CCOC(=O)Nc1ccc(NCc2ccc(F)cc2)cc1N
label: True

compound: CN[C@@H]1Cc2cccc3[nH]c(=O)n(c23)C1
label: False

compound: Cc1nc(-c2ccc(-c3ccc(C(=O)N4CCc5cc6c(cc54)C4(CCN(C)CC4)CO6)cc3)c(C)c2)no1
label: False

compound: c1ccc2c(CN3CCNCC3)cccc2c1
label: False

compound: O=C(Nc1ccncc1)C(=O)c1cn(Cc2ccc(Cl)cc2)c2ccccc12
label: False

compound: CC(C)(O)C=CC(=O)[C@](C)(O)[C@H]1[C@H](O)C[C@]2(C)[C@@H]3CC=C4[C@@H](C=C(O)C(=O)C4(C)C)[C@]3(C)C(=O)C[C@@]12C
label: True

compound: CCCC[N+]1(C)[C@H]2CC(OC(=O)[C@H](CO)c3ccccc3)C[C@H]1[C@H]1O[C@H]12 (stereo partly drawn)
label: False

compound: CC(=Cc1csc(C)n1)[C@@H]1C[C@H]2O[C@@H]2CCC[C@H](C)[C@@H](O)[C@@H](C)C(=O)C(C)(C)[C@@H](O)CC(=O)O1
label: False

compound: C[C@@H]1O[C@@H](O[C@@H]2C=C3CC[C@@H]4[C@@H](CC[C@]5(C)[C@H](c6ccc(=O)oc6)CC[C@@]45O)[C@@]3(C)CC2)[C@H](O)[C@H](O)[C@H]1O
label: True

compound: CCN1C[C@]2(OC(=O)c3ccccc3NC(C)=O)CC[C@H](OC)[C@@]34[C@H]5CC6[C@@H](OC)C[C@](O)(C(C[C@@H]23)[C@@H]14)[C@@]5(O)[C@@H]6OC
label: False

compound: C[C@]12CC[C@H]3[C@@H](CCC4=CC(=O)CC[C@@]43C)[C@H]1CC[C@H]2OC(=O)CCC1CCCC1
label: False

compound: O=c1[nH]c2ccc(Cl)cc2c(N[C@@H]2CN3CCC2CC3)c1-c1nc2ccccc2[nH]1
label: True

compound: CCOC(=O)c1cncn1[C@H](C)c1ccccc1
label: False

compound: CN1CCN(c2ccc([N+](=O)[O-])c3no[n+]([O-])c23)CC1
label: True

compound: CC(=O)Nc1ccc(OC[C@](C)(O)C(=O)Nc2ccc([N+](=O)[O-])c(C(F)(F)F)c2)cc1
label: False

compound: CC(C)N(CCNC(=O)CN1CCCC1=O)C(C)C
label: False

----------
testMethodNotes: Quantitative High-Throughput drug screen in 47 multiple myeloma cell lines against the NCATS MIPE library collection: KMS34_JCRB cell viability assay (AID 1918985); note: nearly all actives have a fitted effect of over 40% in size
studyConditions: KMS34 myeloma viability, CellTiter-Glo ATP luminescence, 48 h; series mostly up to 45.8 µM
Records with an inconclusive call do not appear. Activity calls are given as the source filed them. Calls follow the shape of the dose curve; as a rule, active = well fitted cell-killing curve with a large enough effect; inconclusive = small, poorly fitted or top-dose-only effect, or effect the other way; inactive = no such curve, though single readings can be large or run the other way.
Outcome codes: active, inactive

itemSmiles: O=S(=O)(F)Cc1ccccc1
label: inactive
//
itemSmiles: C[C@@]12OC(=O)[C@]1([C@@H](O)[C@@H]1C=CCCC1)NC(=O)[C@H]2CCCl
label: active
//
itemSmiles: C[C@@H]1O[C@@H](O[C@@H]2C=C3CC[C@@H]4[C@@H](CC[C@]5(C)[C@H](c6ccc(=O)oc6)CC[C@@]45O)[C@@]3(C)CC2)[C@H](O)[C@H](O)[C@H]1O
label: active
//
itemSmiles: CC(C)[C@]12O[C@@H]1[C@@H]1O[C@]13[C@]1(O[C@H]1C[C@@H]1C4=C(CC[C@@]13C)C(=O)OC4)[C@H]2O
label: inactive
//
itemSmiles: c1ccc2c(CN3CCNCC3)cccc2c1
label: inactive
//
itemSmiles: CCOC(=O)Nc1ccc(NCc2ccc(F)cc2)cc1N
label: inactive
//
itemSmiles: C=CCON=C(C[C@H]1O[C@@H]2O[C@]3(C)CC[C@@H]4[C@H](C)CC[C@@H]([C@H]1C)[C@@]24OO3)[C@H]1O[C@@H]2O[C@]3(C)CC[C@H]4[C@H](C)CC[C@@H]([C@@H]1C)[C@@]24OO3
label: active
//
itemSmiles: CSCC[C@@H](NC(=O)[C@@H](Cc1ccccc1)NC(=O)CNC(=O)CNC(=O)[C@@H](N)Cc1ccc(O)cc1)C(=O)O
label: inactive
//
itemSmiles: COc1ccc(C(=O)c2c(C)n(CCN3CCOCC3)c3cc(I)ccc23)cc1
label: active

----------
testMethodNotes: qHTS for differential inhibitors of proliferation of Plasmodium falciparum line W2 (AID 1883);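 note: parasites grown with compound for 72 h before lysis and staining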
studyConditions: Plasmodium falciparum W2 proliferation inhibition; series mostly up to 28.7 µM
Records with an inconclusive call do not appear. Activity calls are given as the source filed them. Calls follow the shape of the dose curve; as a rule, active = well fitted curve in the direction sought with a large enough effect; inconclusive = small, poorly fitted or top-dose-only effect, or another doubt; inactive = no such curve, though single readings can be large or run the other way.
Outcomes: class 1 = active, class 0 = inactive

compound: Cc1nc(-c2ccc(-c3ccc(C(=O)N4CCc5cc6c(cc54)C4(CCN(C)CC4)CO6)cc3)c(C)c2)no1
label: class 1
--
compound: CS(=N)(=O)CC[C@H](N)C(=O)O (stereo partly drawn)
label: class 0
--
compound: NC(CP(=O)(O)O)C(=O)O (stereo not drawn)
label: class 0
--
compound: NC(=NCCC[C@H](N)C(=O)O)N[N+](=O)[O-]
label: class 0
--
compound: O=C(O)[C@@H]1CCN1
label: class 0
--
compound: O=C1CCCN1CC#CCN1CCCC1
label: class 0
--
compound: C#CCOC(=O)C1=CCCN(C)C1
label: class 1
--
compound: CC[C@H](CO)Nc1nc(NCc2ccccc2)c2ncn(C(C)C)c2n1
label: class 1
--
compound: Cc1nccc2c1[nH]c1ccccc12
label: class 1
--
compound: C[N+]1(C)C2CCC1CC(OC(=O)C(CO)c1ccccc1)C2 (stereo not drawn)
label: class 0
--
compound: CCCN(CCC)[C@@H]1CCc2ccc(O)cc2C1
label: class 1
--
compound: C=CCN1CC[C@]23CCCCC2[C@H]1Cc1ccc(O)cc13 (stereo partly drawn)
label: class 1
--
compound: CC(C)Oc1cccnc1N(C)C1CCN(Cc2ccccc2)CC1
label: class 1
--
compound: NC(=O)CN1CC(O)CC1=O (stereo not drawn)
label: class 0
--
compound: NC1CCc2cc(O)c(O)cc2C1 (stereo not drawn)
label: class 1
--
compound: C[N+](C)(C)CC(=O)O
label: class 0
--
compound: Oc1ccc2c3c1O[C@H]1c4[nH]c5c(c4C[C@@]4(O)[C@@H](C2)N(CC2CC2)CC[C@]314)C[C@@]1(O)[C@H]2Cc3ccc(O)c4c3[C@@]1(CCN2CC1CC1)[C@H]5O4
label: class 1
--
compound: S=C(NC1CCCCC1)N1CCC(c2cnc[nH]2)CC1
label: class 1
--
compound: CC1=NN=C(c2ccc(N)cc2)c2cc3c(cc2C1)OCO3
label: class 1
--
compound: NC(CCP(=O)(O)O)C(=O)O (stereo not drawn)
label: class 0
--
compound: O=C(Cc1ccc(Cl)c(Cl)c1)N1CCCCC1CN1CCCC1 (stereo not drawn)
label: class 1
--
compound: O=C(O)CC[N+](=O)[O-]
label: class 0
--
compound: CCCN1CCC[C@H](c2cccc(O)c2)C1
label: class 1

----------
targetOrSystem: D(1A) dopamine receptor (Homo sapiens) (UniProt P21728)
Sequence (P21728 whole entry, looked up): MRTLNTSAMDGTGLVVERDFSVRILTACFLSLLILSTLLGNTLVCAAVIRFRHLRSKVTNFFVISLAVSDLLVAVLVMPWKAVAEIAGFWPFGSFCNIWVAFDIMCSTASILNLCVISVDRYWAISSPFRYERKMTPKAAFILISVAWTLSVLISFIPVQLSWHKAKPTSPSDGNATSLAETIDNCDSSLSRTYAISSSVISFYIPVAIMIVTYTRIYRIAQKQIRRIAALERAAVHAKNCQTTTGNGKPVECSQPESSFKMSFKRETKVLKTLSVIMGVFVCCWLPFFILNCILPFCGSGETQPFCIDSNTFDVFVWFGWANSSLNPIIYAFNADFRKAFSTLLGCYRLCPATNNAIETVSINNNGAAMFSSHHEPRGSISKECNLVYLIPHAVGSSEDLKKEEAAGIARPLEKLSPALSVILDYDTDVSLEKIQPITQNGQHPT
testMethodNotes: HTS Assay for Allosteric Agonists of the Human D1 Dopamine Receptor: Primary Screen for Agonists (AID 488981); for activation: 0% is about no effect
studyConditions: Inducible HEK293 T-REx D1 cells, calcium-flux fluorescence, 180 s kinetic; series mostly up to 41.8 µM
Records with an inconclusive call do not appear. Calls of active or inactive are those of the source. The call rests on the fitted dose curve; in most records, active means well fitted activation curve with a large enough effect; inconclusive means small, poorly fitted or top-dose-only effect; inactive means flat fitted curve, though single readings scatter.
Possible outcomes: label 1 for active, label 0 for inactive

molecule: CCCN1CCC[C@H](c2cccc(O)c2)C1
label: label 0

molecule: O=C(O)[C@@H]1CCN1
label: label 0

molecule: NC(CP(=O)(O)O)C(=O)O (centres undefined)
label: label 0

molecule: C#CCOC(=O)C1=CCCN(C)C1
label: label 0

molecule: CCCCc1ccc(C(=O)O)nc1
label: label 0

molecule: CC(Cc1ccc(O)cc1)NCC(O)c1cc(O)cc(O)c1 (centres undefined)
label: label 0

molecule: NC(=O)CN1CC(O)CC1=O (centres undefined)
label: label 0

molecule: c1ccc(CCCN2CCN(CCOC(c3ccccc3)c3ccccc3)CC2)cc1
label: label 0

molecule: O=C(Cc1ccc(Cl)c(Cl)c1)N1CCCCC1CN1CCCC1 (centres undefined)
label: label 0

molecule: CNCCc1c[nH]c2ccc(O)cc12
label: label 0

molecule: C[C@@H](N)Cc1cnc[nH]1
label: label 0

molecule: NC1CCc2cc(O)c(O)cc2C1 (centres undefined)
label: label 1

molecule: C[C@]12N[C@H](Cc3ccccc31)c1ccccc12
label: label 0

molecule: Clc1cnc(Oc2ccc(Oc3ncc(Cl)cc3Cl)cc2)c(Cl)c1
label: label 0

// data source = PubChem BioAssay (NCATS)
